System: OVCAR-4 ovarian
runDescription: NCI-60 one-dose screen, 48 h (100 = growth as untreated, 0 = no growth, -100 = all killed)
condition: 10 µM
Protocol: Growth inhibition of the OVCAR-4 human tumor cell line is measured as a screen for anti-cancer activity. Cells are grown in 96 well plates and exposed to the test compound for 48 hours. Compounds are tested at a single concentration, which is 10^-5 M for most compounds. The reported endpoint is percent growth (GI% or GIPRCNT), where numbers from 0 - 100% represent growth inhibition, and numbers from -100% - 0 represent cell death. For example, a value of 40 represents 60% growth inhibition. […]
The panel holds about 83,000 compounds, 20% with a hit somewhere; the sample as a whole holds those more often.
measuredQuantity: growth (%)
Form entry: value (%) — number only.

Example cases with answers are listed next.
N#CCCc1c[nH]c2ccccc12 : 93
CC(C)C1=NOC(=O)C1=Cc1cn(-c2ccccc2)nc1-c1cccc([N+](=O)[O-])c1 : 103
CCOc1ccccc1/C=N\Nc1ccc(S(=O)(=O)c2ccc(N/N=C/c3ccccc3OCC)cc2)cc1 : 96.6
C#CCC(C(=O)OCC)C(=O)OCC : 128

Attention now shifts to the item below.
Request the reported growth associated with O=S(=O)(NCCNc1nccc(-c2c(-c3cccc(F)c3)nc3occn23)n1)c1ccc(C(F)(F)F)cc1
87.6
